Please respond with reported MIC Staphylococcus aureus-SMITH (GC 4543) for every item in the list.
- Tested on: Staphylococcus sp.
- assay_overview: in vitro antibacterial evaluation, MIC by broth dilution
- Assay type: cell-based
- measurement_parameters: broth dilution, 18 hours at 35° C.; strain GC 4543
- From the text: Methods for in vitro Antibacterial Evaluation (Table 1) […]
# unit: µg/mL | format: bare number

Looking up CC(c1ccccc1)C1NC(=O)CNC(=O)C(CO)NC(=O)C(CC2CNC(=N)N2C2OC(CO)C(O)C(O)C2O)NC(=O)C(CC2CNC(=N)N2)NC(=O)C(Cc2ccc(OC3OC(CO)C(OC4OC(CO)C(O)C(OCc5ccc(OCc6ccccc6)cc5)C4O)C(O)C3O)cc2)NC1=O (stereo not shown) [Example 246b] , I found its MIC Staphylococcus aureus-SMITH (GC 4543) recorded as 64

Looking up CSc1ccc(C2OCC3OC(OC4C(CO)OC(Oc5ccc(CC6NC(=O)C(C(C)c7ccccc7)NC(=O)CNC(=O)C(CO)NC(=O)C(C(O)C7CNC(=N)N7C7OC(CO)C(O)C(O)C7O)NC(=O)C(C(O)C7CNC(=N)N7)NC6=O)cc5)C(O)C4O)C(O)C(O)C3O2)cc1[N+](=O)[O-] (stereo not shown) [Example 168] , I found its MIC Staphylococcus aureus-SMITH (GC 4543) recorded as 1

Looking up CC(C)=CCCC1OCC2OC(OC3C(CO)OC(Oc4ccc(CC5NC(=O)C(C(C)c6ccccc6)NC(=O)CNC(=O)C(CO)NC(=O)C(C(O)C6CNC(=N)N6C6OC(CO)C(O)C(O)C6O)NC(=O)C(C(O)C6CNC(=N)N6)NC5=O)cc4)C(O)C3O)C(O)C(O)C2O1 (stereo not shown) [Example 123] , I found its MIC Staphylococcus aureus-SMITH (GC 4543) recorded as 4

Looking up CC(c1ccccc1)C1NC(=O)CNC(=O)C(CO)NC(=O)C(C(O)C2CN(c3ncccn3)C(=N)N2C2OC(CO)C(O)C(O)C2O)NC(=O)C(C(O)C2CNC(=Nc3ncccn3)N2)NC(=O)C(Cc2ccc(OC3OC(CO)C(OC4OC5COC6(OC5C(O)C4O)C4CC5CC(C4)CC6C5)C(O)C3O)cc2)NC1=O (stereo not shown) [Example 228] , I found its MIC Staphylococcus aureus-SMITH (GC 4543) recorded as 32

Looking up CC(c1ccccc1)C1NC(=O)CNC(=O)C(CO)NC(=O)C(C(O)C2CNC(=N)N2C2OC(CO)C(O)C(O)C2O)NC(=O)C(C(O)C2CNC(=N)N2)NC(=O)C(Cc2ccc(OC3OC(CO)C(OC4OC(COCc5ccc(Oc6ccccc6)cc5)C(O)C(O)C4O)C(O)C3O)cc2)NC1=O (stereo not shown) [Example 236] , I found its MIC Staphylococcus aureus-SMITH (GC 4543) recorded as 2

Looking up CCOc1cc(C2OCC3OC(OC4C(CO)OC(Oc5ccc(CC6NC(=O)C(C(C)c7ccccc7)NC(=O)CNC(=O)C(CO)NC(=O)C(C(O)C7CNC(=N)N7C7OC(CO)C(O)C(O)C7O)NC(=O)C(C(O)C7CNC(=N)N7)NC6=O)cc5)C(O)C4O)C(O)C(O)C3O2)ccc1OC (stereo not shown) [Example 152] , I found its MIC Staphylococcus aureus-SMITH (GC 4543) recorded as 8

Looking up COc1ccc(COCC2OC(OC3C(CO)OC(Oc4ccc(CC5NC(=O)C(C(C)c6ccccc6)NC(=O)CNC(=O)C(CO)NC(=O)C(C(O)C6CNC(=N)N6C6OC(CO)C(O)C(O)C6O)NC(=O)C(C(O)C6CNC(=N)N6)NC5=O)cc4)C(O)C3O)C(O)C(O)C2O)cc1F (stereo not shown) [Example 237] , I found its MIC Staphylococcus aureus-SMITH (GC 4543) recorded as 2

====

Please respond with reported MIC Enterococcus faecium (GC 4556) for every item in the list.
- Tested on: Enterococcus sp.
- assay_overview: in vitro antibacterial evaluation, MIC by broth dilution
- Type: cell-based
- measurement_parameters: broth dilution, 18 hours at 35° C.
# unit: µg/mL | format: bare number

Looking up CC(c1ccccc1)C1NC(=O)CNC(=O)C(CO)NC(=O)C(CC2CNC(=N)N2C2OC(CO)C(O)C(O)C2O)NC(=O)C(CC2CNC(=N)N2)NC(=O)C(Cc2ccc(OC3OC(CO)C(OC4OC5COC(c6ccc(OCc7ccccc7)cc6)OC5C(O)C4O)C(O)C3O)cc2)NC1=O (stereo not shown) , I found its MIC Enterococcus faecium (GC 4556) recorded as 8

Looking up CC(c1ccccc1)C1NC(=O)CNC(=O)C(CO)NC(=O)C(C(O)C2CNC(=N)N2C2OC(CO)C(O)C(O)C2O)NC(=O)C(C(O)C2CNC(=N)N2)NC(=O)C(Cc2ccc(OC3OC(CO)C(OC4OC5COC6(CCC(C(C)(C)C)CC6)OC5C(O)C4O)C(O)C3O)cc2)NC1=O (stereo not shown) , I found its MIC Enterococcus faecium (GC 4556) recorded as 8

Looking up CC(c1ccccc1)C1NC(=O)CNC(=O)C(CO)NC(=O)C(C(O)C2CNC(=N)N2C2OC(CO)C(O)C(O)C2O)NC(=O)C(C(O)C2CNC(=N)N2)NC(=O)C(Cc2ccc(OC3OC(CO)C(OC4OC5COC6(CCCCC6(C)C)OC5C(O)C4O)C(O)C3O)cc2)NC1=O (stereo not shown) , I found its MIC Enterococcus faecium (GC 4556) recorded as 2

====

- System: Enterococcus sp.
- assay_overview: in vitro antibacterial evaluation, MIC by broth dilution
- Assay type: cell-based
- measurement_parameters: Enterococcus faecium (GC 4557); broth dilution, 18 hours at 35° C.
Please respond with reported MIC Enterococcus faecium (GC 4557) for every item in the list.
# unit: µg/mL | format: bare number

Looking up CC(c1ccccc1)C1NC(=O)CNC(=O)C(CO)NC(=O)C(C(O)C2CNC(=N)N2C2OC(CO)C(O)C(O)C2O)NC(=O)C(C(O)C2CNC(=N)N2)NC(=O)C(Cc2ccc(OC3OC(CO)C(OC4OC5COC(C6CC=CCC6)OC5C(O)C4O)C(O)C3O)cc2)NC1=O (stereo not shown) [Example 115] , I found its MIC Enterococcus faecium (GC 4557) recorded as 2

Looking up CC(=O)OCC1OC(OC2C(CO)OC(Oc3ccc(CC4NC(=O)C(C(C)c5ccccc5)NC(=O)CNC(=O)C(CO)NC(=O)C(C(O)C5CNC(=N)N5C5OC(CO)C(O)C(O)C5O)NC(=O)C(C(O)C5CNC(=N)N5)NC4=O)cc3)C(O)C2O)C(O)C(OC(=O)CCC(C)C)C1O (stereo not shown) [Example 270b] , I found its MIC Enterococcus faecium (GC 4557) recorded as 8

Looking up COC1CCC2(C)C(CCC3C2CCC2(C)C(C(C)CCC4OCC5OC(OC6C(CO)OC(Oc7ccc(CC8NC(=O)C(C(C)c9ccccc9)NC(=O)CNC(=O)C(CO)NC(=O)C(C(O)C9CNC(=N)N9C9OC(CO)C(O)C(O)C9O)NC(=O)C(C(O)C9CNC(=N)N9)NC8=O)cc7)C(O)C6O)C(O)C(O)C5O4)CCC32)C1 (stereo not shown) [Example 130] , I found its MIC Enterococcus faecium (GC 4557) recorded as 32

Looking up CC(C1CCCCC1)C1NC(=O)CNC(=O)C(CO)NC(=O)C(C(O)C2CNC(=N)N2C2OC(CO)C(O)C(O)C2O)NC(=O)C(C(O)C2CNC(=N)N2)NC(=O)C(C[C@H]2CC[C@H](O)CC2)NC1=O (stereo partly shown) [Example 54a] , I found its MIC Enterococcus faecium (GC 4557) recorded as 128

====

Please respond with reported MIC Staphylococcus aureus (GC 4545) for every item in the list.
- Tested on: Staphylococcus sp.
- assay_overview: in vitro antibacterial evaluation, MIC by broth dilution
- Assay type: cell-based
- measurement_parameters: strain GC 4545; broth dilution, 18 hours at 35° C.
# unit: µg/mL | format: bare number

Looking up Cc1ccc(Oc2cccc(-c3nc4cc(CC5NC(=O)C(C(C)c6ccccc6)NC(=O)CNC(=O)C(CO)NC(=O)C(C(O)C6CNC(=N)N6C6OC(CO)C(O)C(O)C6O)NC(=O)C(C(O)C6CNC(=N)N6)NC5=O)ccc4o3)c2)cc1 (stereo not shown) [Example 28] , I found its MIC Staphylococcus aureus (GC 4545) recorded as 4

Looking up CC(c1ccccc1)C1NC(=O)CNC(=O)C(CO)NC(=O)C(C(O)C2CNC(=N)N2C2OC(CO)C(O)C(O)C2O)NC(=O)C(C(O)C2CNC(=N)N2)NC(=O)C(Cc2ccc(OC3OC(CO)C(OC4OC(COC(=O)OCc5ccccc5)C(O)C(O)C4O)C(O)C3O)cc2)NC1=O (stereo not shown) [Example 101a] , I found its MIC Staphylococcus aureus (GC 4545) recorded as 4

Looking up CC(c1ccccc1)C1NC(=O)CNC(=O)C(CO)NC(=O)C(C(O)C2CNC(=N)N2C2OC(CO)C(O)C(O)C2O)NC(=O)C(C(O)C2CNC(=N)N2)NC(=O)C(Cc2ccc(OC3OC(COC(=O)C(c4ccccc4)c4ccccc4)C(OC4OC(CO)C(O)C(O)C4O)C(O)C3O)cc2)NC1=O (stereo not shown) [Example 96b] , I found its MIC Staphylococcus aureus (GC 4545) recorded as 1

Looking up CCCC(C)C1OCC2OC(OC3C(CO)OC(Oc4ccc(CC5NC(=O)C(C(C)c6ccc(Cl)cc6)NC(=O)CNC(=O)C(CO)NC(=O)C(C(O)C6CNC(=N)N6C6OC(CO)C(O)C(O)C6O)NC(=O)C(C(O)C6CNC(=N)N6)NC5=O)cc4)C(O)C3O)C(O)C(O)C2O1 (stereo not shown) [Example 194] , I found its MIC Staphylococcus aureus (GC 4545) recorded as 1

Looking up CC(c1ccccc1)C1NC(=O)CNC(=O)C(CO)NC(=O)C(C(O)C2CNC(=N)N2C2OC(CO)C(O)C(O)C2O)NC(=O)C(C(O)C2CNC(=N)N2)NC(=O)C(Cc2ccc(OC3OC(CO)C(OC4OC5COC(c6ccc(C(=O)c7cc(I)c(I)c(I)c7)cc6)OC5C(O)C4O)C(O)C3O)cc2)NC1=O (stereo not shown) [Example 187] , I found its MIC Staphylococcus aureus (GC 4545) recorded as 64
